TEST_TARGET: Poly [ADP-ribose] polymerase 2 (Homo sapiens, UniProt Q9UGN5)
Sequence (Q9UGN5 whole entry): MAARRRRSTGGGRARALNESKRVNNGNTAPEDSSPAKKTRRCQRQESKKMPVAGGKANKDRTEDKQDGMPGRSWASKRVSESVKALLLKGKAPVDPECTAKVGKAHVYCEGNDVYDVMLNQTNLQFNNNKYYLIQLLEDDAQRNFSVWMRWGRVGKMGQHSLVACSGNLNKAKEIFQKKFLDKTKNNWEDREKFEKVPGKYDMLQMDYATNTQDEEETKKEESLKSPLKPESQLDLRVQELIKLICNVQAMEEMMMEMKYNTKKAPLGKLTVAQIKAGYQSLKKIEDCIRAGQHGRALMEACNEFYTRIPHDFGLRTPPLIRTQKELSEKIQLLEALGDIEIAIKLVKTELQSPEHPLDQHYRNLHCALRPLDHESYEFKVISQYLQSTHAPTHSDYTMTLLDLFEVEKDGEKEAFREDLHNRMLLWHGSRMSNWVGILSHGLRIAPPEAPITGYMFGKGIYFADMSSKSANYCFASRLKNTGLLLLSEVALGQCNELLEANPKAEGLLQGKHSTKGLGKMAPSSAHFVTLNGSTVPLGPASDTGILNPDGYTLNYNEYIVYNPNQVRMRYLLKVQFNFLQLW
ASSAY_METRIC: pIC50
In plain terms, pIC50 is the concentration in mol/L turned into minus its base-10 logarithm.

Asked: Test system Poly [ADP-ribose] polymerase 2 (Homo sapiens, UniProt Q9UGN5); read-out pIC50; what value for `CC(=O)c1cc(COc2ccccc2C(N)=O)ccc1F` ?
Given back: 4.30

----------
pIC50: −log10 of the molar value.
Record type: pIC50 measurement. Applies to: UniProtKB Q53GL7
Sequence (Q53GL7 whole entry): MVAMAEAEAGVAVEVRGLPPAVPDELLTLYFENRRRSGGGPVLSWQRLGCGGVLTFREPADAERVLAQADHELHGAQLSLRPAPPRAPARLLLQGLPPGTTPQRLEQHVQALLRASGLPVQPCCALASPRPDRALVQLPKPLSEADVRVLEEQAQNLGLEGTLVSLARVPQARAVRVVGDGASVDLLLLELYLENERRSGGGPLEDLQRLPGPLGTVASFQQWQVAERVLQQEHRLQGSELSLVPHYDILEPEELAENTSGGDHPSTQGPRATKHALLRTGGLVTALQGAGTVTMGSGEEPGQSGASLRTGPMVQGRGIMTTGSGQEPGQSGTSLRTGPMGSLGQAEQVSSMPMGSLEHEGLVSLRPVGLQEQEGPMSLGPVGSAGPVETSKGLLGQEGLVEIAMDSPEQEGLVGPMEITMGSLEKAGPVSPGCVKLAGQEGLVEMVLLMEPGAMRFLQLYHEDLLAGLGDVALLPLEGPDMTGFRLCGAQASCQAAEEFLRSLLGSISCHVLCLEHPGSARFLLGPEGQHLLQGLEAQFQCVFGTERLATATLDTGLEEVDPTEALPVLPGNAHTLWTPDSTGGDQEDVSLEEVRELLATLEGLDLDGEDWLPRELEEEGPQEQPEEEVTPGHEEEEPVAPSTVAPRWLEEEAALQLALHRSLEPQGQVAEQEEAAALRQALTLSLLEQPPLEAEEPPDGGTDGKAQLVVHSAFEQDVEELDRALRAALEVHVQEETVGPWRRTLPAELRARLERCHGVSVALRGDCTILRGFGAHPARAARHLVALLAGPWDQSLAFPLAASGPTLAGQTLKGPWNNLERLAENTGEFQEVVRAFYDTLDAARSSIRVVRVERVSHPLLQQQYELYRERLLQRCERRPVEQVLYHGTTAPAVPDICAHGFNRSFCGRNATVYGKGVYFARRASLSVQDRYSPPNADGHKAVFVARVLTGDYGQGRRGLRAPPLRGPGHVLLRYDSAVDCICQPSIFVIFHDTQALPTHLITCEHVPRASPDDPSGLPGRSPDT
ASSAY_METRIC: pIC50

a: CC(=O)c1cccc(CCOc2ccc(F)cc2C(N)=O)c1
b: CC(=O)c1cccc(COc2ccccc2C(N)=O)c1
Asked: Between the entries labeled a and b , whose measured pIC50 is lower? Answer = label.
Given back: a
